pIC50 for assorted molecules
assay_target: PDGF-receptor beta enzyme comprising the tyrosine kinase domain (Homo sapiens)
Construct: from amino acid 545 to 1106 of GenBank Access NO: AAA36427
protocol_details: Inhibition of PDGF-receptor kinase activity (cell-free, PLC1 peptide, 33P Flashplate)
Assay type: biochemical
condition_label: PDGF-R kinase activity; read-out: IC50
pIC50: −log10 of the molar value.
property_name: pIC50

| given_smiles | number |
| --- | --- |
| CCOc1cc2c(cc1OCCCO)Cc1c-2n[nH]c1Nc1cccc(F)c1 | 7.93 |
| COc1ccc(C(=O)n2nc(Nc3cccc(F)c3)c3c2-c2cc(OC)c(OC)cc2C3)cc1 | 5.16 |
| FC(F)(F)c1cccc(Nc2[nH]nc3c2Cc2cc(Br)ccc2-3)c1 | 5.09 |

====

inhibition at 10 µM for assorted molecules
assay_target: PDGF-receptor beta enzyme comprising the tyrosine kinase domain (Homo sapiens, UniProt P09619)
Construct: from amino acid 545 to 1106 of GenBank Access NO: AAA36427
Sequence (P09619 545-1106): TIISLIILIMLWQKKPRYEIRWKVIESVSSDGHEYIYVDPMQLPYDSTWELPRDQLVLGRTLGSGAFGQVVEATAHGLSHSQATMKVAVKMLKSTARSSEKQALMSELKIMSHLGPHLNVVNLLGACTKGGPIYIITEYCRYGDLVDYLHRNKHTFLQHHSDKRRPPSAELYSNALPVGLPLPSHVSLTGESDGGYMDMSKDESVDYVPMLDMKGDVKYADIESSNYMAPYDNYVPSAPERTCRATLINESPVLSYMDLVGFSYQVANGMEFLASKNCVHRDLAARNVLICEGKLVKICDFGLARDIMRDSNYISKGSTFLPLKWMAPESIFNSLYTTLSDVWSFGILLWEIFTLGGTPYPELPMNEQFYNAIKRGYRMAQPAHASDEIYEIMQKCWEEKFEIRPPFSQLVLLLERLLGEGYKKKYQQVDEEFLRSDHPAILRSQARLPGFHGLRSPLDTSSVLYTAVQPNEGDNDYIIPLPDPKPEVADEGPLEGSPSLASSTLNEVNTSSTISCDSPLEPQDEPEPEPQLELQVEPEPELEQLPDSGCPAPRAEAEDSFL
protocol_details: Inhibition of PDGF-receptor kinase activity (cell-free, PLC1 peptide, 33P Flashplate)
Format: biochemical
condition_label: PDGF-R kinase activity; compound at 10 uM; read-out: Percent Inhibition @ 10 uM
property_name: inhibition at 10 µM (%)

| molecule | number |
| --- | --- |
| COc1ccc(OC)c(Nc2[nH]nc3c2Cc2ccc(OC)cc2-3)c1 [Compound 174] | 83 |
| CCOc1cccc(Nc2[nH]nc3c2Cc2c(OCCCN4CCOCC4)cccc2-3)c1 [Compound 394] | 91 |
| COc1cc2c(cc1OC)-c1n[nH]c(Nc3ccccc3)c1C2 [Compound 2] | 91 |
| Fc1ccc2c(c1)Cc1c-2n[nH]c1Nc1cc(C(F)(F)F)cc(C(F)(F)F)c1 [Compound 239] | 91 |
| COc1cc2c(cc1OC)-c1n[nH]c(Nc3cccc(C(C)O)c3)c1C2 (stereo not drawn) [Compound 278] | 97 |
| COCCCOc1cc2c(cc1OCCCOC)-c1n[nH]c(Nc3cccnc3)c1C2 [Compound 286] | 95.5 |

====

assay_target: PDGF-receptor beta enzyme comprising the tyrosine kinase domain (Homo sapiens, UniProt P09619)
Construct: from amino acid 545 to 1106 of GenBank Access NO: AAA36427
protocol_details: Inhibition of PDGF-receptor kinase activity (cell-free, PLC1 peptide, 33P Flashplate)
Format: biochemical
condition_label: PDGF-R kinase activity; read-out: IC50
property_name: log10 IC50 (log10 of the value in nM)

| compound | log10 IC50 |
| --- | --- |
| COCCCOc1cc2c(cc1OCCCOC)-c1n[nH]c(Nc3cccc(F)c3)c1C2 [Compound 283] | 0.64 |
| COc1ccc2c(c1)-c1n[nH]c(Nc3ccc(C(F)(F)F)cc3)c1C2 [Compound 178] | 2.12 |
| COc1cccc(Nc2[nH]nc3c2Cc2cc(OCCCO)c(OC)cc2-3)c1 [Compound 266] | 0.18 |
| COc1cc2c(cc1OCCCN(C)C)Cc1c-2n[nH]c1Nc1ccc(F)c(Cl)c1 [Compound 200] | 0.30 |
| COc1cc2c(cc1OCC(O)CO)Cc1c-2n[nH]c1Nc1cccc(F)c1 (stereo not drawn) [Compound 262] | 0.00 |

====

inhibition at 10 µM for assorted compounds
assay_target: PDGF-receptor beta enzyme comprising the tyrosine kinase domain (Homo sapiens)
Construct: from amino acid 545 to 1106 of GenBank Access NO: AAA36427
protocol_details: Inhibition of PDGF-receptor kinase activity (cell-free, PLC1 peptide, 33P Flashplate)
Format: biochemical
condition_label: PDGF-R kinase activity; compound at 10 uM; read-out: Percent Inhibition @ 10 uM
property_name: inhibition at 10 µM (%)

| compound | assay_target | measure_unit | number |
| --- | --- | --- | --- |
| COc1cc2c(cc1OC)-c1n[nH]c(Nc3cc(Cl)cc(Cl)c3)c1C2 [Compound 19] | PDGF-receptor beta enzyme comprising the tyrosine kinase domain (Homo sapiens) | % | 91 |
| COc1cccc(Nc2[nH]nc3c2C(C)c2cc(OC)c(OC)cc2-3)c1 (centres unmarked) [Compound 253] | PDGF-receptor beta enzyme comprising the tyrosine kinase domain (Homo sapiens) | % | 94 |
| COc1ccc(OC)c(Nc2[nH]nc3c2Cc2ccc(C)cc2-3)c1 [Compound 184] | PDGF-receptor beta enzyme comprising the tyrosine kinase domain (Homo sapiens) | % | 94 |
| COc1ccc(Nc2[nH]nc3c2Cc2ccc(C)cc2-3)cc1Cl [Compound 309] | PDGF-receptor beta enzyme comprising the tyrosine kinase domain (Homo sapiens) | % | 92.5 |
| COc1ccc2c(c1)-c1n[nH]c(Nc3ccc(F)cc3)c1C2 [Compound 170] | PDGF-receptor beta enzyme comprising the tyrosine kinase domain (Homo sapiens) | % | 95.5 |

====

assay_target: PDGF-receptor beta enzyme comprising the tyrosine kinase domain (Homo sapiens, UniProt P09619)
Construct: from amino acid 545 to 1106 of GenBank Access NO: AAA36427
protocol_details: Inhibition of PDGF-receptor kinase activity (cell-free, PLC1 peptide, 33P Flashplate)
Type: biochemical
condition_label: PDGF-R kinase activity; compound at 10 uM; read-out: Percent Inhibition @ 10 uM

| compound | inhibition at 10 µM / % |
| --- | --- |
| COc1cc2c(cc1OC)C(C)c1c-2n[nH]c1NCc1cccc(Cl)c1 (centres unmarked) | 73.5 |
| Fc1ccc2c(c1)Cc1c-2n[nH]c1Nc1ccccc1 | 71 |
| COc1cc2c(cc1OC)-c1n[nH]c(Nc3cccc(C(=O)NCCOCCOCCOCCNC(=O)CCCCC4SCC5NC(=O)NC54)c3)c1C2 (centres unmarked) | 89 |
| COc1cc2c(cc1F)Cc1c-2n[nH]c1NCc1ccccc1F | 97 |
| COc1cc2c(cc1OC)-c1n[nH]c(Nc3ccc(F)c(Cl)c3)c1C2 | 94 |
| COc1cc2c(cc1OC)-c1n[nH]c(Nc3ccccc3Cl)c1C2 | 89 |
| COc1cc2c(cc1OC)-c1n[nH]c(Nc3ccccn3)c1C2 | 93.5 |
| COc1ccncc1Nc1[nH]nc2c1Cc1cc(OC)c(OC)cc1-2 | 88 |
| COc1cc2c(cc1OC)-c1n[nH]c(NCc3cccnc3)c1C2 | 99.5 |
| COc1cc2c(cc1OC)-c1c(c(Nc3cccc(F)c3)nn1C(=O)CO)C2 | 95.5 |
| COc1cc2c(cc1OC)-c1n[nH]c(Nc3cc(Cl)ccc3Cl)c1C2 | 57 |
| COc1cc2c(cc1OC)-c1n[nH]c(Nc3cccc4c3OC(F)(F)O4)c1C2 | 41.5 |
| COc1cc2c(cc1O)-c1n[nH]c(Nc3cccc(F)c3)c1C2 | 106 |
| COc1cc2c(cc1OC)-c1nn(C(=O)Nc3cccc(F)c3)c(Nc3cccc(F)c3)c1C2 | 88 |
| CN(C)c1ccc(Nc2[nH]nc3c2Cc2cc(Cl)ccc2-3)cc1 | 70 |
| CNC(=S)n1nc(Nc2cccc(F)c2)c2c1-c1cc(OC)c(OC)cc1C2 | 90.5 |
| COc1cc2c(cc1OC)-c1n[nH]c(Nc3cc(F)ccc3F)c1C2 | 76 |
| Cc1ccc2c(c1)-c1n[nH]c(Nc3cccc(C(F)(F)F)c3)c1C2 | 35 |
| Fc1ccc2c(c1)-c1n[nH]c(Nc3ccccc3)c1C2 | 80 |
| COC(=O)c1cccc(Nc2[nH]nc3c2Cc2cc(OCCCN4CCOCC4)c(OC)cc2-3)c1 | 53 |

====

assay_target: PDGF-receptor beta enzyme comprising the tyrosine kinase domain (Homo sapiens)
Construct: from amino acid 545 to 1106 of GenBank Access NO: AAA36427
protocol_details: Inhibition of PDGF-receptor kinase activity (cell-free, PLC1 peptide, 33P Flashplate)
Type: biochemical
condition_label: PDGF-R kinase activity; read-out: IC50
pIC50: −log10 of the molar value.

| compound | pIC50 |
| --- | --- |
| COc1cc2c(cc1OCCCO)Cc1c-2n[nH]c1Nc1cccc(F)c1 [Compound 265] | 8.26 |
| COc1cc2c(cc1OCC(O)CN1CCCC1)Cc1c-2n[nH]c1NCc1c(F)cccc1F (centres unmarked) [Compound 391] | 8.17 |
| COc1cc2c(cc1OC)-c1c(c(Nc3cccc(F)c3)nn1CC(C)=O)C2 [Compound 484] | 6.66 |
| COc1cc2c(cc1OC)-c1c(c(Nc3cccc(F)c3)nn1C(=O)c1ccc(Cl)cc1)C2 [Compound 494] | 5.81 |
| CC(C)Oc1cc2c(cc1OC(C)C)C(C)c1c-2n[nH]c1Nc1cccc(Br)c1 (centres unmarked) [Compound 353] | 6.44 |
| CCOc1cc2c(cc1OCC)-c1n[nH]c(NCc3ccccc3Cl)c1C2 [Compound 292] | 7.74 |
| CCC1c2cc(OC)c(OC)cc2-c2n[nH]c(Nc3cccc(F)c3)c21 (centres unmarked) [Compound 421] | 7.09 |
| COc1cc2c(cc1OC)-c1n[nH]c(NCc3ccccc3F)c1C2 [Compound 325] | 7.01 |
